assay-procedure: Binding affinity to duplex DNA (unknown origin) up to 20 uM by surface plasmon resonance method
Calls of active or inactive are those of the source. No cut-off for these calls is given here.
test-readout: Activity

| given-smiles | observed |
| --- | --- |
| CN(C)CCNC(=O)c1ccc(/C=C/c2nc3cc(N4CCN(C)CC4)c(F)cc3c(=O)n2-c2ccccc2)cc1 | inactive |
| CN1CCN(c2cc3nc(/C=C/c4ccc(NC(=O)CN5CCCC5)cc4)n(-c4ccccc4)c(=O)c3cc2F)CC1 | inactive |
| CCN(CC)CCC(=O)Nc1ccc(/C=C/c2nc3cc(N4CCN(C)CC4)c(F)cc3c(=O)n2-c2ccccc2)cc1 | inactive |
| CN1CCN(c2cc3nc(/C=C/c4ccc(C(=O)NCCCN5CCCC5)cc4)n(-c4ccccc4)c(=O)c3cc2F)CC1 | inactive |
